Target: Xanthine dehydrogenase/oxidase (Bos taurus, UniProt P80457)
Sequence (P80457 whole entry): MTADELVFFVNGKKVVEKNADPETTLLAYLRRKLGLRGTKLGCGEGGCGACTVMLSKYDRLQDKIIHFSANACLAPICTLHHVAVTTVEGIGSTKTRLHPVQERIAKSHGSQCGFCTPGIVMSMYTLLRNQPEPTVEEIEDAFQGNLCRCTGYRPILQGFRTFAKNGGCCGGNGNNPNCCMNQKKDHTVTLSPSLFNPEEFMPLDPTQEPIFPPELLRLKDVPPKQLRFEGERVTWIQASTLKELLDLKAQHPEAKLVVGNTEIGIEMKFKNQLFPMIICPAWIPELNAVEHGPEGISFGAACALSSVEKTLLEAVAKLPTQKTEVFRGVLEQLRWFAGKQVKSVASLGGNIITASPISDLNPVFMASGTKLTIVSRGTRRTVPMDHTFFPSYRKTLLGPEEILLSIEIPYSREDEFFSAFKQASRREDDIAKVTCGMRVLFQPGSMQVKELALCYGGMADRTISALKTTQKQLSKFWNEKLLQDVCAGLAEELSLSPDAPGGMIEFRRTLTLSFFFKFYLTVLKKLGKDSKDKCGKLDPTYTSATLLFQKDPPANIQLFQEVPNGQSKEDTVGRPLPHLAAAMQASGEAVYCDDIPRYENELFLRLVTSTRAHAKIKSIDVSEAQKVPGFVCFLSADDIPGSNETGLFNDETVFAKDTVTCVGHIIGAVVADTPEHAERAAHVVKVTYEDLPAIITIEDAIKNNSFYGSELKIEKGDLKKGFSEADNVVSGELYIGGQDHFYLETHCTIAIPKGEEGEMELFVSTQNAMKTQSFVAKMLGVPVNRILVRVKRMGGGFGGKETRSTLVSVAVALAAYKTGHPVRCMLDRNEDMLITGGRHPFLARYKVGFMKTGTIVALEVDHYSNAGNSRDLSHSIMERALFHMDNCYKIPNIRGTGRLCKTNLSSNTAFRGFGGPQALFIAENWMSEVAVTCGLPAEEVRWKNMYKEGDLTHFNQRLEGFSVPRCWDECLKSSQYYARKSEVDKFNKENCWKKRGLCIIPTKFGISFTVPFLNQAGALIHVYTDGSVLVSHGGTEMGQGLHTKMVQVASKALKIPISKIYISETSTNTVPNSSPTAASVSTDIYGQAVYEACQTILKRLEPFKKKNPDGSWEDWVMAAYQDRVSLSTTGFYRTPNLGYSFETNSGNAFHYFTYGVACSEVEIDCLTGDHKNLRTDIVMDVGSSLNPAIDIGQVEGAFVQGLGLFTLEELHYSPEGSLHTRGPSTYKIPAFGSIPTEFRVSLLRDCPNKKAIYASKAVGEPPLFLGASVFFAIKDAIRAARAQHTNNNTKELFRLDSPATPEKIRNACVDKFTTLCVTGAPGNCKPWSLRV
Assay: Inhibition of bovine xanthine oxidase assessed as reduction in uric acid formation at 1 uM using xanthine as substrate pretreated for 5 mins followed by substrate addition measured by UV-vis spectrophotometric method relative to control
Details: cattle
propertyName: inhibition at 1 µM (%)
Use % as the unit, but write only the number.

Find the recorded inhibition at 1 µM belonging to COc1ccc(Nc2ncnc3c2C(c2ccc(O)cc2)c2c(c(=O)oc4ccccc24)O3)cc1 (stereo not given) and report it. 30.9

COc1ccc(Nc2ncnc3c2C(c2cccc(O)c2)C2=C(CCCC2=O)O3)cc1 (stereo not given) , same question. 29.4

COc1ccc(Nc2ncnc3c2C(c2ccc(OC)c(OC)c2)c2c(c(=O)oc4ccccc24)O3)cc1 (stereo not given) , same question. 36.7

COc1ccc(Nc2ncnc3c2C(c2ccc(OC)c(OC)c2)C2=C(CCCC2=O)O3)cc1 (stereo not given) , same question. 29.3

# context switch: different compound, same inhibition at 1 µM
Find the recorded inhibition at 1 µM belonging to COc1ccc(Nc2ncnc3c2C(c2ccc([N+](=O)[O-])cc2)c2c(c(=O)oc4ccccc24)O3)cc1 (stereo not given) and report it. 22.2

* * *

As a worked illustration, we turn to IC50 data collected for Xanthine dehydrogenase/oxidase (Bos taurus).

Find the recorded IC50 belonging to COc1ccc(Nc2ncnc3c2C(c2cccc([N+](=O)[O-])c2)c2c(c(=O)oc4ccccc24)O3)cc1 (centres undefined) and report it. 65 µM

COc1ccc(Nc2ncnc3c2C(c2ccccc2)c2c(c(=O)oc4ccccc24)O3)cc1 (centres undefined) , same question. 40 µM

COc1ccc(Nc2ncnc3c2C(c2ccc(OC)cc2)c2c(c(=O)oc4ccccc24)O3)cc1 (centres undefined) , same question. 24 µM

COc1ccc(Nc2ncnc3c2C(c2ccc(O)cc2)c2c(c(=O)oc4ccccc24)O3)cc1 (centres undefined) , same question. 30 µM

COc1ccc(Nc2ncnc3c2C(c2ccc([N+](=O)[O-])cc2)c2c(c(=O)oc4ccccc24)O3)cc1 (centres undefined) , same question. 64 µM

COc1ccc(Nc2ncnc3c2C(c2ccc(O)cc2)C2=C(CCCC2=O)O3)cc1 (centres undefined) , same question. 28 µM

COc1ccc(Nc2ncnc3c2C(c2cccc(C)c2)c2c(c(=O)oc4ccccc24)O3)cc1 (centres undefined) , same question. 37 µM

COc1ccc(Nc2ncnc3c2C(c2cc(OC)c(OC)c(OC)c2)C2=C(CCCC2=O)O3)cc1 (centres undefined) , same question. 40 µM

Others:
Find the recorded IC50 belonging to O=c1cc(-c2ccc(O)cc2)oc2cc(O)cc(O)c12 and report it. 10.2 µM

* * *

Each record here notes measured inhibition at 1 µM.
Biological target: Xanthine dehydrogenase/oxidase (Bos taurus)
Assay: Inhibition of bovine xanthine oxidase assessed as reduction in uric acid formation at 1 uM using xanthine as substrate pretreated for 5 mins followed by substrate addition measured by UV-vis spectrophotometric method relative to control
Conditions: cattle
Use % as the unit, but write only the number.

Find the recorded inhibition at 1 µM belonging to COc1ccc(Nc2ncnc3c2C(c2ccc(OC)cc2)c2c(n[nH]c2C)O3)cc1 (stereo not given) and report it. 20.1

Others:
Find the recorded inhibition at 1 µM belonging to COc1ccc(Nc2ncnc3c2C(c2cccc(C)c2)c2c(c(=O)oc4ccccc24)O3)cc1 (stereo not given) and report it. 28.7

COc1ccc(Nc2ncnc3c2C(c2cccc([N+](=O)[O-])c2)c2c(c(=O)oc4ccccc24)O3)cc1 (stereo not given) , same question. 20.2

COc1ccc(Nc2ncnc3c2C(c2ccc(O)c(O)c2)C2=C(CCCC2=O)O3)cc1 (stereo not given) , same question. 27.3

COc1ccc(Nc2ncnc3c2C(c2cc(OC)c(OC)c(OC)c2)c2c(c(=O)oc4ccccc24)O3)cc1 (stereo not given) , same question. 26.2

These data points were gathered from ChEMBL document CHEMBL4011597.
